Tested on: IL-17A
Test: IL-17 release from differentiated primary human T-cells (IL-17A HTRF assay)
Type: cell-based
Conditions: primary human CD4+ T cells differentiated into Th17 cells, 45-hour incubation, IL-17A in supernatant; read-out: hIL17 IC50
Measured IC50 of individual entries

- Cc1noc(-c2ccc(-n3nc(-c4cccnc4)c4c3[C@]3(C)C=C(C#N)C(=O)[C@H](C)[C@H]3CC4)cc2)n1: 87 nM
- Cc1noc(C)c1-c1ccc(-n2nc(-c3ccccc3)c3c2[C@]2(C)C=C(C#N)C(=O)[C@H](C)[C@H]2CC3)cc1: 37 nM
- C[C@H]1C(=O)C(C#N)=C[C@@]2(C)c3nc(-c4cccc(-c5ccncc5)c4)n(-c4cccc(F)c4)c3CC[C@H]12: 70 nM
- C[C@H]1C(=O)C(C#N)=C[C@@]2(C)c3nn(-c4cccc(-c5ccccc5)c4)c(-c4cccc(F)c4)c3CC[C@H]12: 21 nM
- C[C@H]1C(=O)C(C#N)=C[C@@]2(C)c3nc(-c4cccc(Br)c4)n(-c4cccc(F)c4)c3CC[C@H]12: 87 nM

Challenge: Recall the reported IC50 of C[C@H]1C(=O)C(C#N)=C[C@@]2(C)c3c(c(C4CC4)nn3-c3ccc(-c4ccccc4)cc3)CC[C@H]12 when tested on IL-17A.
Response given: 130 nM

Challenge: Recall the reported IC50 of C[C@H]1C(=O)C(C#N)=C[C@@]2(C)c3nc(-c4cccc(-c5cncnc5)c4)n(-c4cccc(F)c4)c3CC[C@H]12 when tested on IL-17A.
Response given: 185 nM
